Below: a set of entries, each annotated with reported DiscoveRx cAMP antagonism IC50.
Target: T1, human GIP receptor (human, UniProt P48546 22-466)
T1 sequence (looked up): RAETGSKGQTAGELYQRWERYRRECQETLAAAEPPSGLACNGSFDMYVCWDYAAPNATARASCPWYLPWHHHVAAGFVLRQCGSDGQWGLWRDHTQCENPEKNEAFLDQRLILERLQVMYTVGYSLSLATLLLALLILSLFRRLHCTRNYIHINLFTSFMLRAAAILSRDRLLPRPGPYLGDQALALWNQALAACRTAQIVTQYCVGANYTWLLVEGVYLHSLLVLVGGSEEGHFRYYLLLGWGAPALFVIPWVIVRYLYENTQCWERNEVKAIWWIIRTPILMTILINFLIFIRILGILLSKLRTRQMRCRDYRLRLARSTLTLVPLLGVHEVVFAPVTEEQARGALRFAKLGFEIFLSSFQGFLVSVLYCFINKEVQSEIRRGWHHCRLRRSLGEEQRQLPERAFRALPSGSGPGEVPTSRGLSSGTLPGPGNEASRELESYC
Experiment: cell-based or functional assay
*1 amine or outer side, *2 acyl side, *3 side chain or, on linkers, in order; H or OH if unused. Where no end group is shown, it is not given here. Side-chain parts run from the residue outwards. [ ]: non-standard residue; d: D form. The star is where a group is joined. C18 diacid = O=C(O)CCCCCCCCCCCCCCCCC(=O)*; C16 diacid = O=C(O)CCCCCCCCCCCCCCC(=O)*; γGlu = O=C(O)[C@H](CCC(=O)[*:2])N[*:1]; pGlu = O=C1CC[C@@H](C(=O)O)N1; AEEA = NCCOCCOCC(=O)O
Give just the number in nM; leave the unit off.

Field: example entries. Status: answers known.
{"columns": ["binder", "DiscoveRx cAMP antagonism IC50 / nM"],
 "data": [
  ["[pGlu]GTFISDYSIAMDRIK([AEEA-AEEA-γGlu-C18 diacid])QQDFVNWLLAQR-NH2 [AT381]", 38],
  ["EGTFISDYSIAMDRIK([AEEA-AEEA-γGlu-C16 diacid])QQDFVNWLLAQR-NH2 (not fully specified (residue 1)) [AT374]", 12],
  ["EGTFISDYSIAMDRIK([AEEA-AEEA-γGlu-C18 diacid])QQDFVNWLLAQR-NH2 (not fully specified (residue 1)) [AT377]", 19],
  ["EGTFISDYSIAMDRIK([AEEA-γGlu-C18 diacid])QQDFVNWLLAQR-NH2 (not fully specified (residue 1)) [AT376]", 19],
  ["[pGlu]GTFISDYSIAMDRIK([AEEA-AEEA-AEEA-γGlu-C18 diacid])QQDFVNWLLAQR-NH2 [AT382]", 2]
]}

What the record says about TFISDYSIALDRIKQQDFVNWLLAQR-NH2 (not fully specified (residue 14); printed as TFISDYSIALDRIKQQDFVNWLLAQR-(AEEAc +γ-Glu)-C16-diacid/K18) [AT234] : DiscoveRx cAMP antagonism IC50 is 16

What the record says about [pGlu]GTFISDYSIAMDRIK([AEEA-AEEA-AEEA-γGlu-C16 diacid])QQDFVNWLLAQR-NH2 [AT380] : DiscoveRx cAMP antagonism IC50 is 7

What the record says about [pGlu]GTFISDYSIAMDRIK(C18 diacid)QQDFVNWLLAQR-NH2 [AT391] : DiscoveRx cAMP antagonism IC50 is 10
